Test system: rumen fluid
procedure.details: in vitro ruminal fermentation, 22 muramidases, 12 h (Example 4)
Set-up: species or system cow
assay.conditions: VFA production after 12 h; muramidase 0.20 mg/40 ml
Listed below: Propionate values for each entry.
measured.quantity: Propionate (mmol/L)

[[record]]
molecule = "S: mature muramidase polypeptide from Aspergffius sp., novel MUR polypeptide; S in Example 4 (protein, listed as Aspergillus sp.) YPVKADVHCRSGPGTSYSIVKTYSTGTQISVSCQAAGTDVDGDQLWDKTSDGCYVSDYYVSTGSSNYVTSHCPTEYAIKTDVNCRSGPGTNYGIVKTYNQGVMVSLNCQASGTDVDGDSLWDKTSDGCYVSDYYVATGSSSYVTSACSGSSSSGGGGSSSSGNLPSLDSTQSAHARAIIGEAKSQNVGRQGCLAGIATALVESSMLMYANSNVAASLSYPHDAVGSDYDSVGLFQQRVSIYTNLAADMDAAQSAGQFFDEMKKVSGWETMNVGDLCQEVQRSAYPDRYAGEVSTAESICSAGGL"
result_value = 41.2

[[record]]
molecule = "Y: mature muramidase polypeptide from Ovatospora brasiliensis, novel MUR polypeptide; Y in Example 4 (protein, listed as Ovatospora brasiliensis) YPVKADSLNCRSGPGTSYKVVKTYKKGADIKISCQTEGPSVNGDNLWIKTQDGCYVADYYVKTGTNGYVAKKCSSGGSTGGGSGGGKGNLPGLNAKQSSHARAIVAQAKKDGVGLHGCEAGIATALVESGIKVYANKKVPASLKYPHDAVGSDHDSIGIFQQRAVYYPNIAADMDPARSAHQFFAKMKGVSGWKTMAVGKLCQKVQVSAYPDRYAKRVSEATKICKAAGI"
result_value = 43.1

[[record]]
molecule = "W: mature muramidase polypeptide from Chaetomium sp., novel MUR polypeptide; W in Example 4 (protein, Chaetomium sp) YPITGDPLNCRSGPGTSYAIKKSYTKGADIKISCQTEGTSVNGNSIWDKTQDGCYVADFYVKTGVDGYVTKKCSGGGGDTGGGSGGIPGPVKDDYPYKSSCGGVDPWNYYKCQCTSFVAWRINKRLGIKFHNQYKGTNWGNANTWDNAAKKTGVKVNSTPKPGAIAQSNAGNYGHVAWVTAVNGNKVTIEEYNWGKREGYGKRTVDKSAFNYIHVKA"
result_value = 40.9

[[record]]
molecule = "T: mature muramidase polypeptide from Chaetomium sp., novel MUR polypeptide; T in Example 4 (protein, Chaetomium sp) YHIKGSIVNCRAGPGTSHAVKKTYAKGQNVQISCQTTGNIIHGNNIWDLTQDGCYVADYYVKTGTDGFVTDKCSSSGNSGVSGTSTSSVGGAAGPMKDDYPYKSNCEGTDPWLYFKCQCTSFVAWRINERLGIKFHNQYKGVNWGDANTWDDAAKRTGVTVNKTPKPGCVAQTDKGTWGHVAWVAAVGDETVTIEEYNYGGKERYGTRTVPKGEFDYIHVKN"
result_value = 45.1

[[record]]
molecule = "V: mature muramidase polypeptide from Acremonium exiguum, novel MUR polypeptide; V in Example 4 (protein, listed as Acremonium exiguum) RSIPIVARAYPGLDDVQSRNAEAALGEIRAEGINPARQACLAVISTALQESELYIYANPAVPESMNYPHDREGGDQDSVGMFQQRPEWYPDIAADMSASGSTRQFLAAMLQVPGWQTMEVSALDQEVQKAEAGNLYGQRIPLATQVCDAAGF"
result_value = 40.6

[[record]]
molecule = "N: mature muramidase polypeptide from Ovatospora brasiliensis, GH25; N in Example 4 (protein, listed as Ovatospora brasiliensis) FDISNWQPAGTVDFAAAYSSGARFVIIKATEGTSYIDPSFSSHYTKATNAGFIRGGYHFAHPGETTGAAEADYFIAHGGGWSNDGITLPGMLDLESENKGQCWGLSTSAMVSWIKSFSDRYKSRTGVYPLIYTNPSWWSACTGNSNAFVNTNPLVLARYASAPGTIPGGWPYQTIWQNSDSYAYGGDSDIFNGSLDRLKALAKGS"
result_value = 40.8

[[record]]
molecule = "U: mature muramidase polypeptide from Zopfiella Sp., novel MUR polypeptide; U in Example 4 (protein, Zopfiella sp) YPIKGDTVNCRSGPGTSFAVKKTYAKGKDIKITCQTTGTSVNGNNIWDKTSDGCYVADYYVKTGKDGFVTDKCDASSVPKPPATKIPGPVTNDYPYKSSCGGVDPWNYYKCQCTSFVAWRVNKRLGKKFHNRYKGHAWGNANQWDEAAKQSGVKVNSTPKPGCIAQTNAGSYGHVAWVTAVGKDTVTIEEYNWNKKLGYGTRTVAKSKFNYIHLEP"
result_value = 40.5

[[record]]
molecule = "Z: mature muramidase polypeptide from Penicillium wellingtonense, novel MUR polypeptide; Z in Example 4 (protein, Penicillium wellingtonense) YPITGDVVNCRSGPGTTYDVVKSYKLNADVSITCQAPGTDVKGDSVWDKTADGCYVADYYVKTGSSSYVTTKCGGDDDGGDNDGGSSGNLPGLTSTQSKHAKDIIAEAKSEDLGRQGCLAGIATAIVESNILIYANSGVPESLKYPHDAVGSDHDSVGIFQQRAMFYKDIAADMDAGKSAGQFFGKMKAVSGWKSMDVGTLCQKVQGSAYPSRYAEQVSKAEKICKAGGL"
result_value = 39.6

